# Tested on: U2OS
# experiment description: Multiplex assay against U2OS
# Type: toxicity, cell-based
# measurement conditions: human, 24 h, 10 µM, compound concentration 10 uM, replicate 1
Population Membrane Permeable-Phenotype (%) overview
property measured: Population Membrane Permeable-Phenotype (%)

[[record]]
compound = "CCC1=C[C@@H]2C[N@](C1)Cc1c([nH]c3ccccc13)[C@@](C(=O)OC)(c1cc3c(cc1OC)N(C)[C@H]1[C@@](O)(C(=O)OC)[C@H](OC(C)=O)[C@]4(CC)C=CCN5CC[C@]31[C@@H]54)C2.O=C(O)C(O)C(O)C(=O)O.O=C(O)C(O)C(O)C(=O)O [VINORELBINE TARTRATE]"
assayed_system = "U2OS"
result = 55

[[record]]
compound = "CC(C)c1noc(N2CCC(COc3ccc(-c4ccc(S(C)(=O)=O)cc4)nc3)CC2)n1"
assayed_system = "U2OS"
result = 9

[[record]]
compound = "Cc1nc(N2CC[C@H](O)C2)ncc1-c1cc(C(F)(F)F)cc2[nH]ncc12"
assayed_system = "U2OS"
result = 5

[[record]]
compound = "O=C(c1cc2c(cc1F)OC(c1ccc(F)cc1)(c1ccc(Cl)cc1Cl)O2)N1CCOCC1 (stereo not given)"
assayed_system = "U2OS"
result = 48

[[record]]
compound = "O=c1cc(N2CCOCC2)oc2c(-c3cccc4c3sc3ccccc34)cccc12"
assayed_system = "U2OS"
result = 22

[[record]]
compound = "COC(=O)C1=C(C)NC(C)=C(C(=O)OCCCN2CCC(c3ccccc3)(c3ccccc3)CC2)[C@H]1c1cccc([N+](=O)[O-])c1"
assayed_system = "U2OS"
result = 100

[[record]]
compound = "CC(C)CC(=O)Nc1[nH]nc2c1CN(C(=O)C1CCN(C)CC1)C2(C)C"
assayed_system = "U2OS"
result = 24

[[record]]
compound = "C=CC(=O)Nc1cccc(Oc2nc(Nc3ccc(N4CCN(C)CC4)cc3OC)ncc2Cl)c1"
assayed_system = "U2OS"
result = 29

[[record]]
compound = "COc1ccccc1CN[C@H]1C2CCN(CC2)[C@H]1C(c1ccccc1)c1ccccc1"
assayed_system = "U2OS"
result = 6

[[record]]
compound = "CNC(=O)Nc1ccc(-c2nc(N3CC4CCC(C3)O4)c3cnn(C4CCC5(CC4)OCCO5)c3n2)cc1"
assayed_system = "U2OS"
result = 10

[[record]]
compound = "CNC(=O)Nc1ccc2c(c1)[C@@]1(CC2)OC(=O)N(CC(=O)N(Cc2ccc(F)cc2)[C@@H](C)C(F)(F)F)C1=O"
assayed_system = "U2OS"
result = 5

[[record]]
compound = "CCc1nn(CCCN2CCN(c3cccc(Cl)c3)CC2)c(=O)n1CCOc1ccccc1.Cl [NEFAZODONE HYDROCHLORIDE]"
assayed_system = "U2OS"
result = 72

[[record]]
compound = "COc1cc2ncn(-c3cc(OCc4ccccc4C(F)(F)F)c(C(N)=O)s3)c2cc1OC [GW843682X]"
assayed_system = "U2OS"
result = 42

[[record]]
compound = "CCCSc1nc(N[C@@H]2C[C@H]2c2ccc(F)c(F)c2)c2nnn([C@@H]3C[C@H](OCCO)[C@@H](O)[C@H]3O)c2n1"
assayed_system = "U2OS"
result = 55

[[record]]
compound = "CC(C)OC(=O)N1CCC(Oc2ncnc3c2cnn3-c2ccc(S(C)(=O)=O)cc2F)CC1"
assayed_system = "U2OS"
result = 1


----------
# System: HEK-293T
# experiment description: Multiplex assay against HEK293T
# Assay type: toxicity, cell-based
# measurement conditions: human, 12 h, 10 µM, compound concentration 10 uM, replicate 2
Decision: Population Mitochondria Different-Phenotype (%) >= 20% yields 1, all other cases yield 0.

[[record]]
molecule = "CNC(=O)Nc1ccc2c(c1)[C@@]1(CC2)OC(=O)N(CC(=O)N(Cc2ccc(F)cc2)[C@@H](C)C(F)(F)F)C1=O"
assigned_category = 0

[[record]]
molecule = "C=CC(=O)Nc1cccc(Sc2nc(Nc3ccc(N4CCN(C)CC4)cc3)ncc2Cl)c1"
assigned_category = 0

[[record]]
molecule = "COc1ccc(-c2ccc3ncc4c(c3c2)n(-c2ccc(N3CCNCC3)c(C(F)(F)F)c2)c(=O)n4C)cn1.O=C(O)/C=C\\C(=O)O"
assigned_category = 0

[[record]]
molecule = "CC(C)OC(=O)N1CCC(Oc2ncnc3c2cnn3-c2ccc(S(C)(=O)=O)cc2F)CC1"
assigned_category = 0

[[record]]
molecule = "CC(C)Oc1ccccc1C(=O)Nc1ccccc1C(=O)Nc1cccc(S(=O)(=O)C(F)(F)F)c1"
assigned_category = 1

[[record]]
molecule = "COC(=O)C1=C(C)NC(C)=C(C(=O)OCCCN2CCC(c3ccccc3)(c3ccccc3)CC2)[C@H]1c1cccc([N+](=O)[O-])c1"
assigned_category = 0

[[record]]
molecule = "CNC(=O)Nc1ccc(-c2nc(N3CC4CCC(C3)O4)c3cnn(C4CCC5(CC4)OCCO5)c3n2)cc1"
assigned_category = 1

[[record]]
molecule = "O=c1[nH]c2ccccc2n1C1CCN(Cc2ccc(-c3[nH]c4cc5ncnc5cc4nc3-c3ccccc3)cc2)CC1"
assigned_category = 1

[[record]]
molecule = "COc1cc2ncn(-c3cc(OCc4ccccc4C(F)(F)F)c(C(N)=O)s3)c2cc1OC [GW843682X]"
assigned_category = 1

[[record]]
molecule = "CC(C)NC(=O)N1CC[C@H](NC2=Nc3cc(F)ccc3N(CC(F)F)c3ccc(Cl)cc32)C1"
assigned_category = 1

[[record]]
molecule = "CC(C)(C)NC[C@H](O)COc1nsnc1N1CCOCC1"
assigned_category = 1

[[record]]
molecule = "C[C@]12CC[C@@H]3c4ccc(O)cc4CC[C@H]3[C@@H]1CC[C@@H]2O"
assigned_category = 0

[[record]]
molecule = "Cc1c[nH]c2nccc(Oc3c(F)cc(Nc4cc(Cl)nc(N)n4)cc3F)c12"
assigned_category = 0


----------
# Tested on: U2OS
# experiment description: Multiplex assay against U2OS
# Format: toxicity, cell-based
# measurement conditions: human, 24 h, 1 µM, compound concentration 1 uM, replicate 2
Population Mitotic Cells (%) overview
property measured: Population Mitotic Cells (%)

[[record]]
compound = "CN1CCN(Cc2ccc(Nc3ncc(Cl)c(Nc4ccccc4S(=O)(=O)N(C)C)n3)cc2)CC1"
result = "100%"

[[record]]
compound = "CNC(=O)Nc1ccc(-c2nc(N3CC4CCC(C3)O4)c3cnn(C4CCC5(CC4)OCCO5)c3n2)cc1"
result = "75%"

[[record]]
compound = "C=CC(=O)Nc1ccc2[nH]c(=O)n(C3CCN(Cc4ccc(-c5nc6cc[nH]c(=O)c6cc5-c5ccccc5)cc4)CC3)c2c1"
result = "62%"

[[record]]
compound = "Cc1ccccc1C(c1ccccc1C)N1C2CCC1CC(O)(c1ccccc1)C2 (configuration not stated)"
result = "80%"

[[record]]
compound = "Cc1ccc2c(c1)c1c(n2CCc2ccc(C)nc2)CCN(C)C1 [LATREPIRDINE]"
result = "44%"

[[record]]
compound = "CC(C)Oc1ccccc1C(=O)Nc1ccccc1C(=O)Nc1cccc(S(=O)(=O)C(F)(F)F)c1"
result = "66%"

[[record]]
compound = "O=C(c1cc2c(cc1F)OC(c1ccc(F)cc1)(c1ccc(Cl)cc1Cl)O2)N1CCOCC1 (configuration not stated)"
result = "66%"

[[record]]
compound = "COc1ccc(-c2ccc3ncc4c(c3c2)n(-c2ccc(N3CCNCC3)c(C(F)(F)F)c2)c(=O)n4C)cn1.O=C(O)/C=C\\C(=O)O"
result = "16%"

[[record]]
compound = "CNC(=O)Nc1ccc2c(c1)[C@@]1(CC2)OC(=O)N(CC(=O)N(Cc2ccc(F)cc2)[C@@H](C)C(F)(F)F)C1=O"
result = "25%"

[[record]]
compound = "Cl.O=C(O)c1cc(-c2ccc(C3CCNCC3)cc2)c2ccc(-c3ccc(C(F)(F)F)cc3)cc2c1"
result = "80%"

[[record]]
compound = "COc1ccccc1CN[C@H]1C2CCN(CC2)[C@H]1C(c1ccccc1)c1ccccc1"
result = "45%"

[[record]]
compound = "COC(=O)C1=C(C)NC(C)=C(C(=O)OCCCN2CCC(c3ccccc3)(c3ccccc3)CC2)[C@H]1c1cccc([N+](=O)[O-])c1"
result = "22%"

[[record]]
compound = "CC(C)NC(=O)N1CC[C@H](NC2=Nc3cc(F)ccc3N(CC(F)F)c3ccc(Cl)cc32)C1"
result = "50%"

[[record]]
compound = "Cc1nc(N2CC[C@H](O)C2)ncc1-c1cc(C(F)(F)F)cc2[nH]ncc12"
result = "85%"

[[record]]
compound = "CCOC(=O)Nc1cc(-c2ccc(C)c(NS(C)(=O)=O)c2)nn2c(C)nnc12"
result = "80%"

[[record]]
compound = "CCc1ccc(OCc2ccccc2C(=O)Nc2ccc3nc(C)cc(N)c3c2)cc1.Cl"
result = "16%"

[[record]]
compound = "CCc1nn(CCCN2CCN(c3cccc(Cl)c3)CC2)c(=O)n1CCOc1ccccc1.Cl [NEFAZODONE HYDROCHLORIDE]"
result = "50%"

